tested on: L1210; test: In vitro cytotoxicity assay was measured against human tumor L1210 cell line using camptothecin as a standard; type: functional; conditions: Mus musculus, read-out: TD50 (the source's name)
Param label: returns true when CC50 < 4 ng/mL, returns false otherwise, including exact equality.

**Q:** Item "COc1cccc2c1C(=O)c1c(O)c3c(c(O)c1C2=O)C[C@@](O)(C(=O)CO)C[C@@H]3O[C@H]1C[C@H](N)[C@H](O)[C@H](C)O1" : CC50 beneath 4 ng/mL, strictly?
**A:** false

**Q:** Item CCC1(O)C(=O)OCc2c1cc1n(c2=O)Cc2cc3cc(OCCNC(=O)c4nccn4COC)ccc3nc2-1 (stereo not given) : CC50 beneath 4 ng/mL, strictly?
**A:** true

**Q:** Item CCC1(O)C(=O)OCc2c1cc1n(c2=O)Cc2cc3cc(OCCNC(=O)c4cccn4COC)ccc3nc2-1 (stereo not given) : CC50 beneath 4 ng/mL, strictly?
**A:** true

**Q:** Item CCC1(O)C(=O)OCc2c1cc1n(c2=O)Cc2cc3cc(OCCNC(=O)C4CCCO4)ccc3nc2-1 (stereo not given) : CC50 beneath 4 ng/mL, strictly?
**A:** false

**Q:** Item CCC1(O)C(=O)OCc2c1cc1n(c2=O)Cc2cc3cc(OCCNC(=O)c4cccn4C)ccc3nc2-1 (stereo not given) : CC50 beneath 4 ng/mL, strictly?
**A:** true

**Q:** Item CCC1(O)C(=O)OCc2c1cc1n(c2=O)Cc2cc3cc(OCCNC(=O)/C=C/c4ccco4)ccc3nc2-1 (stereo not given) : CC50 beneath 4 ng/mL, strictly?
**A:** false

**Q:** Item CCC1(O)C(=O)OCc2c1cc1n(c2=O)Cc2cc3cc(OCCNC(=O)c4ccc[nH]4)ccc3nc2-1 (stereo not given) : CC50 beneath 4 ng/mL, strictly?
**A:** true

**Q:** Item CCC1(O)C(=O)OCc2c1cc1n(c2=O)Cc2cc3cc(OCCNC(=O)S(=O)(=O)c4cccs4)ccc3nc2-1 (stereo not given) : CC50 beneath 4 ng/mL, strictly?
**A:** true

**Q:** Item CCC1(O)C(=O)OCc2c1cc1n(c2=O)Cc2cc3cc(OCCNC(=O)c4cccs4)ccc3nc2-1 (stereo not given) : CC50 beneath 4 ng/mL, strictly?
**A:** true

====

test system: MCF7; assay: In vitro cytotoxicity assay was measured against human tumor MCF-7 cell line using camptothecin as a standard; format: functional; details: read-out: TD50 (the source's name)
assayEndpoint: CC50 (µg/mL)
One number for each entry, in µg/mL.

Use these answered entries as a reference point.
CCC1(O)C(=O)OCc2c1cc1n(c2=O)Cc2cc3cc(OCCNC(=O)c4cccn4C)ccc3nc2-1 (stereo unspecified) :: 0.14
CCC1(O)C(=O)OCc2c1cc1n(c2=O)Cc2cc3cc(OCCNC(=O)c4cccn4COC)ccc3nc2-1 (stereo unspecified) :: 0.12
CCC1(O)C(=O)OCc2c1cc1n(c2=O)Cc2cc3cc(OCCNC(=O)c4nccn4COC)ccc3nc2-1 (stereo unspecified) :: 0.75
CCC1(O)C(=O)OCc2c1cc1n(c2=O)Cc2cc3cc(OCCNC(=O)S(=O)(=O)c4cccs4)ccc3nc2-1 (stereo unspecified) :: 0.1
CCC1(O)C(=O)OCc2c1cc1n(c2=O)Cc2cc3cc(OCCNC(=O)/C=C/c4ccco4)ccc3nc2-1 (stereo unspecified) :: 1

Now let's try a different one.
**Q:** # return recorded CC50 for entry COc1cccc2c1C(=O)c1c(O)c3c(c(O)c1C2=O)C[C@@](O)(C(=O)CO)C[C@@H]3O[C@H]1C[C@H](N)[C@H](O)[C@H](C)O1 [DOXORUBICIN]
**A:** 0.15
